Molecular target: T1, human CD20 (human, UniProt P11836 1-297)
T1 sequence (looked up): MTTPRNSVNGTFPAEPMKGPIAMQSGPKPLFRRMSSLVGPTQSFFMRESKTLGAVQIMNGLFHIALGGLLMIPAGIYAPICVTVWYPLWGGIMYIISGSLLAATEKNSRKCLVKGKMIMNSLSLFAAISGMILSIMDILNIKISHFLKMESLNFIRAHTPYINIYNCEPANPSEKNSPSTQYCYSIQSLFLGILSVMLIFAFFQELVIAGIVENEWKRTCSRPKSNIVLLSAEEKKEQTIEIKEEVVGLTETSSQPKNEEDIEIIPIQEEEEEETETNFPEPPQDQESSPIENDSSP
Assay: cell-based or functional assay
Measurement kind: EC50 µg/ml Ramos Apoptosis WST-1 (µg/mL)
Enter your answer as a number in µg/mL; do not include the unit.

So what's the measured EC50 µg/ml Ramos Apoptosis WST-1 for this one? mAb 2.1.2 (ATCC Accession Number PTA-7328) (antibody, human IgG1, V domains shown, Human IgG1 kappa; also called 2.1.1; 50-001H2_1_1) VH: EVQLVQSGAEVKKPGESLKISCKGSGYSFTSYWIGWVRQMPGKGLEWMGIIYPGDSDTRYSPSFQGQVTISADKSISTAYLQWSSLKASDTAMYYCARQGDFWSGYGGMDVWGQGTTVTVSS VL: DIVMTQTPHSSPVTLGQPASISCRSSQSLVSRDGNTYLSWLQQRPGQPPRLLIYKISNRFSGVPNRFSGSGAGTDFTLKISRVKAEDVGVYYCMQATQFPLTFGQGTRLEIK
0.0067
